All values here come from patent US20260152487A1.

# assayed_target: recombinant human PKM2 (Homo sapiens, UniProt P14618)
# Construct: His (N); purchased R&D Systems
# Sequence (P14618 2-531 limits assumed): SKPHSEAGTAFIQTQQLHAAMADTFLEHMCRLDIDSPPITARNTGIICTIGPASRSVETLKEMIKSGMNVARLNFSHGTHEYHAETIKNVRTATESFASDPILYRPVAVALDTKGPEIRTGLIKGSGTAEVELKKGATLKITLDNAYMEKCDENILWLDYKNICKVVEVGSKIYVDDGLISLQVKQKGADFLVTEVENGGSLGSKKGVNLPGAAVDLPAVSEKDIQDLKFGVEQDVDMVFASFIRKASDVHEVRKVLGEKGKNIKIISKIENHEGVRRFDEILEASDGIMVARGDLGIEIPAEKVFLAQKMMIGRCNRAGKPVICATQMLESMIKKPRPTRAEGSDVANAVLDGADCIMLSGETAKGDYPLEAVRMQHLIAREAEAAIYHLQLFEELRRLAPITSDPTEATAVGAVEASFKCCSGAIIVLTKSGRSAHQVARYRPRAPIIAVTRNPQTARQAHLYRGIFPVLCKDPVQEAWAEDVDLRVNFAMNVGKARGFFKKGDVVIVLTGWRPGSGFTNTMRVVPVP
# protocol_description: Human PKM2 activation assay (Kinase-Glo Plus luminescent detection of generated ATP)
# Type: biochemical
# measurement_parameters: recombinant human PKM2 activation; 4-parameter logistic fit; read-out: hPKM2 EC50
pEC50: −log10 of the molar value.
reported_endpoint: pEC50

The cases that follow already have their pEC50 on record.
compound	numeric_result
COCC(c1ccc(OC)nc1)n1ncc2cc(S(=O)(=O)c3ccccc3)ccc2c1=O (centres unmarked)	6.03
CC1(C)Cc2cc(Cn3ncc4cc(S(=O)(=O)c5ccccc5)ccc4c3=O)ccc2O1	6.74
Cn1ccc(S(=O)(=O)c2ccc3c(=O)n(Cc4ccccc4C(N)=O)ncc3c2)n1	6.50

(P) O=c1c2ccc(S(=O)(=O)c3ccn(CCO)n3)cc2cnn1Cc1cccnc1O
(Q) O=c1c2ccc(S(=O)(=O)c3cn[nH]c3)cc2cnn1Cc1ccc2occc2n1
(R) COc1ccc(Cn2ncc3cc(S(=O)(=O)c4ccccc4)ccc3c2=O)nc1
Exercise: List by increasing pEC50. Return the labels ranked in the requested order, please.
Key: P, R, Q
(P: 6.24, R: 7.16, Q: 7.71)
